Provenance of the data: patent US20220144956A1

# reported pKd; entries follow
biological target: human TGFßRII (antigen of the Octet experiments) (human, UniProt P37173 23-166)
Sequence (P37173 23-166): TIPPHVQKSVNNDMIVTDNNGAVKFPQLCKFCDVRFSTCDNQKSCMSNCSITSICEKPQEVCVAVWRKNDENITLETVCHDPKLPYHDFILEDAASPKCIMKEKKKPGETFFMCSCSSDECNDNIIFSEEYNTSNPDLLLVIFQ
// pKd is dimensionless: -log10 of concentration (M)

Answer with reported pKd of XENP37818 TBRII-A_H1.190_L1.53 (antibody, V domains shown) VH: QLQVQESGPGLVKPSETLSLTCTVSGGSISSSYFSWGWIRQPPGKGLEWIGSFYYGGKTYYNPSLKSRATISIDTSKNQFSLKLSSVTAADTAVYYCARGPTTIRGVIDSWGQGTLVTVSS VL: EIVLTQSPATLSLSPGERATLSCRASQSVRSYLAWYQQKPGQAPRLLIYDASNRATGIPARFSGSGSGTDFTLTISSLEPEDFAVYYCQQRSNYPPTFGQGTKVEIK
6.96

Answer with reported pKd of XENP37813 TBRII-A_H1.270_L1 (antibody, V domains shown) VH: QLQVQESGPGLVKPSETLSLTCTVSGGSISSSYFSWGWIRQPPGKGLEWIGSFNYGGKTYYNPSLKSRATISIDTSKNQFSLKLSSVTAADTAVYYCARGPTLIRGVIDSWGQGTLVTVSS VL: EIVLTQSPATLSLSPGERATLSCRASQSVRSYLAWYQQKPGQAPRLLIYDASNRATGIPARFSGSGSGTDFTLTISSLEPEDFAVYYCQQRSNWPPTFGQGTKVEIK
7.50
